system tested: RL DHFR (Rattus norvegicus, UniProt Q920D2)
Construct: Toxoplasmosis gondii (Tg) and rat liver (RL); from tissue; host or cells: rat liver
Sequence (Q920D2 whole entry): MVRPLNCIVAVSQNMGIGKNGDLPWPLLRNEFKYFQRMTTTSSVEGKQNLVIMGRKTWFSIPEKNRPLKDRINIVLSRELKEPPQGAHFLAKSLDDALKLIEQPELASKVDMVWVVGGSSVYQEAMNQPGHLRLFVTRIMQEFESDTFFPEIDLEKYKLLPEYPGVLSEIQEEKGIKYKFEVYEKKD
measurement description: Inhibition of DHFR from rat liver
Format: biochemical
condition set: Table 7; read-out: RL DHFR IC50
pIC50: −log10 of the molar value.
Threshold check on pIC50: at or above 4 gives 1, strictly below gives 0.

# molecule, group label
measured = [
    ("COc1ccc(OC)c(NCc2cnc3[nH]c(N)nc(N)c2-3)c1 [Compound 4]", 0),
    ("COc1ccc(NCc2c[nH]c3nc(N)nc(N)c23)cc1 [Compound 3]", 1),
    ("COc1ccc(OC)c(Cc2cnc3nc(N)nc(N)c3c2C)c1 [PTX, piritrexim, reference compound]", 1),
    ("Nc1nc(N)c2c(CNc3ccccc3)cnc-2[nH]1 [Compound 8]", 0),
    ("CCOc1ccc(OCC)c(NCc2c[nH]c3nc(N)nc(N)c23)c1 [Compound 5]", 1),
    ("Nc1nc(N)c2c(CNc3ccc(Cl)c(Cl)c3)c[nH]c2n1 [Compound 6]", 1),
    ("COc1cc(NCc2c[nH]c3nc(N)nc(N)c23)cc(OC)c1OC [Compound 1]", 1),
]
